Target: T1, SNTG2, Q9NY99
T1 sequence (Q9NY99 68-166, limits assumed, looked up): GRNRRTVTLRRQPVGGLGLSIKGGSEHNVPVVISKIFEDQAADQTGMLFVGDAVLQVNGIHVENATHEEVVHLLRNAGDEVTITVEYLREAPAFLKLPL
Test: holdup assay
Set-up: key: below the threshold = too weak to quantify, mostly under pKd 3.1 to 4
Details: plain residues with an end cap or a label only (N-terminal biotin on a linker: ado-ado)
experimental readout: pKd

{"binder": "NTALVESEDL [PALLS, Q8WX93;Q8WX93-1]", "result value": "below the threshold"}
{"binder": "AHGSTRDQSI [KCNB1, Q14721]", "result value": "below the threshold"}
{"binder": "DAAHHDESNC [FMNL3, Q8IVF7]", "result value": "below the threshold"}
{"binder": "TNSKQGETTV [FZD1, Q9UP38]", "result value": 4.16}
{"binder": "LPPPESESKV [KCNJ9, Q92806]", "result value": 3.74}

Proceed to the following item.
Prompt line: Sample SSSVNVSSNL [CXCR1, P25024] — what was its pKd?
Response line: below the threshold
